# ASSAY_INFO: Lipophilicity index, log K of the compound by RP-HPLC analysis
# Type: physicochemical
ENDPOINT: log K

CCOc1cc2c(-c3cccc(S(N)(=O)=O)c3)n[nH]c2cc1-c1cnn(CC(C)C)c1 : 0.87
CCOc1cc2c(-c3cccc(NC(C)=O)c3)n[nH]c2cc1C#N : 0.87
CC(=O)Nc1cccc(-c2n[nH]c3cc(-c4cnn(C)c4)c(NC4CCCCC4)cc23)c1 : 0.94
Cn1cc(-c2cc3[nH]nc(-c4cccc(S(N)(=O)=O)c4)c3cc2NC2CCCCC2)cn1 : 0.92
CCOc1cc2c(-c3cccc(S(N)(=O)=O)c3)n[nH]c2cc1-c1cn[nH]c1 : 0.74
CCOc1cc2c(-c3cccc(S(N)(=O)=O)c3)n[nH]c2cc1C#N : 0.86
CCOc1cc2c(-c3cccc(S(N)(=O)=O)c3)n[nH]c2cc1-c1ccccc1 : 0.91
Cn1cc(-c2cc3[nH]nc(-c4cccc(S(N)(=O)=O)c4)c3cc2OC2CCCCC2)cn1 : 0.93
CCOc1cc2c(-c3cccc(S(N)(=O)=O)c3)n[nH]c2cc1-c1cnn(C)c1 : 0.79
CCOc1ccc2[nH]nc(-c3cccc(S(N)(=O)=O)c3)c2c1 : 0.79
CCOc1cc2c(-c3ccc(C)c(S(N)(=O)=O)c3)n[nH]c2cc1-c1cnn(C)c1 : 0.82

###

# ASSAY_INFO: Metabolic stability in Sprague-Dawley rat hepatocytes assessed as compound remaining at 2 uM after 1 hr by LC-MS/MS analysis
# Assay type: ADME, cell-based, Hepatocyte
# APPLIED_CONDITIONS: read-out: Stability
ENDPOINT: remaining at 1 h, 2 µM (%)

CC(=O)Nc1cccc(-c2n[nH]c3cc(-c4cnn(C)c4)c(NC4CCCCC4)cc23)c1 : 64
Cn1cc(-c2cc3[nH]nc(-c4cccc(S(N)(=O)=O)c4)c3cc2NC2CCCCC2)cn1 : 69

###

# SUBJECT_OF_TEST: Dual specificity protein kinase TTK (Homo sapiens)
# ASSAY_INFO: Inhibition of FLAG-tagged MPS1 phosphorylation in human RERF-LC-AI Tet-off cells after 3 hrs
# Type: cell-based
ENDPOINT: IC50 (µM)

Check out these entries, answers already filled in.
CC(=O)Nc1cccc(-c2n[nH]c3cc(-c4cnn(C)c4)c(NC4CCCCC4)cc23)c1 : 0.0304
CCOc1cc2c(-c3cccc(S(N)(=O)=O)c3)n[nH]c2cc1C#N : 3.35
Cn1cc(-c2cc3[nH]nc(-c4cccc(S(N)(=O)=O)c4)c3cc2NC2CCCCC2)cn1 : 0.0205
CCOc1cc2c(-c3cccc(S(N)(=O)=O)c3)n[nH]c2cc1-c1cnn(CC(C)C)c1 : 4.11
Cn1cc(-c2cc3[nH]nc(-c4cccc(S(N)(=O)=O)c4)c3cc2OC2CCCCC2)cn1 : 0.074
CCOc1cc2c(-c3cccc(S(N)(=O)=O)c3)n[nH]c2cc1-c1cnn(C)c1 : 0.0858

a = CCOc1cc2c(-c3cccc(NC(C)=O)c3)n[nH]c2cc1C#N
b = CCOc1ccc2[nH]nc(-c3cccc(S(N)(=O)=O)c3)c2c1
c = CCOc1cc2c(-c3ccc(C)c(S(N)(=O)=O)c3)n[nH]c2cc1-c1cnn(C)c1
Data request: Put these in order: smallest IC50 first, largest last. Response format: the labels, sorted as the prompt asks.
Data returned: c, b, a

###

# SUBJECT_OF_TEST: Dual specificity protein kinase TTK (Homo sapiens, UniProt P33981)
# Sequence (P33981 whole entry): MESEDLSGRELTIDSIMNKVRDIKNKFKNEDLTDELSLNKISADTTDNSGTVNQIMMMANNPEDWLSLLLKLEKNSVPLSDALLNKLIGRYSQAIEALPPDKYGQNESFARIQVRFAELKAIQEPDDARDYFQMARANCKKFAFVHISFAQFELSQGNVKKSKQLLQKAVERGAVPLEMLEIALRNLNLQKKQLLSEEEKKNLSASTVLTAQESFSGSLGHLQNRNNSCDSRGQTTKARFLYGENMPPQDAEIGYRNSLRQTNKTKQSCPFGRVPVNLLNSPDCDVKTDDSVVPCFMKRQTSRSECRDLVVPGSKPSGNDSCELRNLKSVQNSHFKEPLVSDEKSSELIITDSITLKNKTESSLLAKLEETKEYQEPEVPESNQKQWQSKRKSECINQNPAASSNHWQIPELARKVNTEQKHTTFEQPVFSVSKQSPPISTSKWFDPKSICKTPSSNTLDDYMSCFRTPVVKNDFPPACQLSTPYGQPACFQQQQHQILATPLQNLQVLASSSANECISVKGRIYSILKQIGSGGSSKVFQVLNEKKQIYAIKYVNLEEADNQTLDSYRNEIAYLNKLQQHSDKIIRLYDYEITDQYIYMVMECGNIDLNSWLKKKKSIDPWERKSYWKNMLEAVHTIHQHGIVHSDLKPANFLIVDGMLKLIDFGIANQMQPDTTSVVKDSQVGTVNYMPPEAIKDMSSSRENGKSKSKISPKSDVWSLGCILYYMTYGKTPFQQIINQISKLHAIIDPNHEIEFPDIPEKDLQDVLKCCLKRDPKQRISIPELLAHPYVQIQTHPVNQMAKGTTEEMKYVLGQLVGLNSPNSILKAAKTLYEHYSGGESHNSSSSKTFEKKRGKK
ENDPOINT: IC50 (nM)
Give just the numeric value; nM need not be written.

Data request: Write down the reported IC50 of Oc1c2ccccc2c2c3c(cccc13)N=N2 [SP-600125] , test system: Dual specificity protein kinase TTK (Homo sapiens, UniProt P33981).
Data returned: 98

###

# ASSAY_INFO: Clearance in Sprague-Dawley rat at 0.5 mg/kg, iv by LC-MS/MS analysis
# Assay type: ADME, organism-based
# Parameters: dose 0.5 mg/kg, route intravenous
# APPLIED_CONDITIONS: in vivo
ENDPOINT: clearance (mL/min/kg)

A = CC(=O)Nc1cccc(-c2n[nH]c3cc(-c4cnn(C)c4)c(NC4CCCCC4)cc23)c1
B = Cn1cc(-c2cc3[nH]nc(-c4cccc(S(N)(=O)=O)c4)c3cc2NC2CCCCC2)cn1
Data request: Pick one, A or B : lowest reported clearance. Field: selected label. Fill in the label of the entry you choose.
Data returned: A
(A: 19 mL/min/kg, B: 33 mL/min/kg)

###

# SUBJECT_OF_TEST: Mitogen-activated protein kinase 8 (Homo sapiens, UniProt P45983)
# Sequence (P45983 whole entry): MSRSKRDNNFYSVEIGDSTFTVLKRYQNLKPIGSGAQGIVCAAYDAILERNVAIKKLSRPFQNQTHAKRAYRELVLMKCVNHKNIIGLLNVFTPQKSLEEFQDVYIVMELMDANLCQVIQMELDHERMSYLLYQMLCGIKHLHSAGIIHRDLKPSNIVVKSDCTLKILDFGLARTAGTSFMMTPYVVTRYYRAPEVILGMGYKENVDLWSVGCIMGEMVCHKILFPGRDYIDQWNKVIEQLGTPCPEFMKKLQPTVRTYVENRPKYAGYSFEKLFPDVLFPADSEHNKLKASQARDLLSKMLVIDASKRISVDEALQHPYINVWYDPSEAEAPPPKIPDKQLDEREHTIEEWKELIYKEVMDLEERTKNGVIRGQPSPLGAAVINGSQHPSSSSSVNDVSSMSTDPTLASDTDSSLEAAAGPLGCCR
# ASSAY_INFO: Inhibition of JNK1 (unknown origin) using ATF2 as substrate measured after 1 hr by ELISA
ENDPOINT: IC50 (µM)

CCOc1cc2c(-c3ccc(C)c(S(N)(=O)=O)c3)n[nH]c2cc1-c1cnn(C)c1 : 0.0435
CCOc1ccc2[nH]nc(-c3cccc(S(N)(=O)=O)c3)c2c1 : 0.15

1 = CCOc1cc2c(-c3cccc(S(N)(=O)=O)c3)n[nH]c2cc1-c1cnn(C)c1
2 = CCOc1cc2c(-c3cccc(S(N)(=O)=O)c3)n[nH]c2cc1-c1cnn(CC(C)C)c1
Data request: Input pair: 1 , 2 . Output: entry with lower IC50. Answer = label.
Data returned: 1
(1: 0.0937 µM, 2: 0.441 µM)

###

# SUBJECT_OF_TEST: Dual specificity protein kinase TTK (Homo sapiens)
# ASSAY_INFO: Inhibition of MPS1 (unknown origin) using biotin-labeled AGAGLARHTDDEMTGYVA as substrate after 90 mins by DELFIA
pIC50: −log10 of the molar value.
ENDPOINT: pIC50

CCOc1cc2c(-c3cccc(S(N)(=O)=O)c3)n[nH]c2cc1C#N : 7.77

1 = Cn1cc(-c2cc3[nH]nc(-c4cccc(S(N)(=O)=O)c4)c3cc2NC2CCCCC2)cn1
2 = CCOc1cc2c(-c3cccc(S(N)(=O)=O)c3)n[nH]c2cc1-c1ccccc1
Data request: Form: Entry with minimum pIC50 (choose one): 1 / 2 Please respond with the label that marks your chosen entry.
Data returned: 2
(2: 6.76, 1: 7.98)

P = CCOc1ccc2[nH]nc(-c3cccc(NC(C)=O)c3)c2c1
Q = CCOc1cc2c(-c3cccc(S(N)(=O)=O)c3)n[nH]c2cc1-c1cnn(C)c1
R = CCOc1cc2c(-c3cccc(S(N)(=O)=O)c3)n[nH]c2cc1-c1cn[nH]c1
S = CCOc1ccc2[nH]nc(-c3ccc(NC(C)=O)cc3)c2c1
T = CCOc1cc2c(-c3cccc(NC(C)=O)c3)n[nH]c2cc1C#N
Data request: Provide the items ranked by increasing pIC50. // respond by listing labels in the order requested
Data returned: S, P, T, R, Q

I = Cn1cc(-c2cc3[nH]nc(-c4cccc(S(N)(=O)=O)c4)c3cc2OC2CCCCC2)cn1
II = CCOc1ccc2[nH]nc(-c3cccc(C(N)=O)c3)c2c1
Data request: Thinking about recorded pIC50 values, which is higher, I or II ? The response must carry the label of the picked entry.
Data returned: I

###

# SUBJECT_OF_TEST: Mitogen-activated protein kinase 8 (Homo sapiens, UniProt P45983)
# ASSAY_INFO: Inhibition of JNK1 (unknown origin) using ATF2 as substrate measured after 1 hr by ELISA
ENDPOINT: IC50 (nM)

Previously resolved entries follow.
CCOc1ccc2[nH]nc(-c3cccc(C(N)=O)c3)c2c1 : 42.8
CCOc1cc2c(-c3cccc(NC(C)=O)c3)n[nH]c2cc1C#N : 43
Cn1cc(-c2cc3[nH]nc(-c4cccc(S(N)(=O)=O)c4)c3cc2OC2CCCCC2)cn1 : 118

I = CCOc1ccc2[nH]nc(-c3ccc(NC(C)=O)cc3)c2c1
II = CCOc1ccc2[nH]nc(-c3cccc(NC(C)=O)c3)c2c1
III = CCOc1cc2c(-c3cccc(S(N)(=O)=O)c3)n[nH]c2cc1-c1ccccc1
IV = Cn1cc(-c2cc3[nH]nc(-c4cccc(S(N)(=O)=O)c4)c3cc2NC2CCCCC2)cn1
V = CC(=O)Nc1cccc(-c2n[nH]c3cc(-c4cnn(C)c4)c(NC4CCCCC4)cc23)c1
Data request: List the 5 entries from lowest IC50 to highest IC50 value. Answer format: the labels, in the requested order.
Data returned: V, IV, II, I, III

The reported numbers originate from ChEMBL document CHEMBL2380259.
